# Method Description: In vitro cytotoxicity MTT assay
# Assay type: cell-based
# Condition Set: human, LO2 cells (human normal hepatocyte cell line); MTT, 48 h incubation; read-out: Cytotoxicity IC50 against LO2 cells
Recorded Metric: IC50 at 48 h

Report IC50 at 48 h for O=C1N[C@@H](Cc2c[nH]c3ccccc23)C(=O)N2CCC[C@@H]12 please.
> 100 µM

----------
Would you kindly list Vmax for each of these compounds?
# Tested On: α-Glucosidase (AGS) (Saccharomyces cerevisiae, UniProt P53341)
# Sequence (P53341 whole entry): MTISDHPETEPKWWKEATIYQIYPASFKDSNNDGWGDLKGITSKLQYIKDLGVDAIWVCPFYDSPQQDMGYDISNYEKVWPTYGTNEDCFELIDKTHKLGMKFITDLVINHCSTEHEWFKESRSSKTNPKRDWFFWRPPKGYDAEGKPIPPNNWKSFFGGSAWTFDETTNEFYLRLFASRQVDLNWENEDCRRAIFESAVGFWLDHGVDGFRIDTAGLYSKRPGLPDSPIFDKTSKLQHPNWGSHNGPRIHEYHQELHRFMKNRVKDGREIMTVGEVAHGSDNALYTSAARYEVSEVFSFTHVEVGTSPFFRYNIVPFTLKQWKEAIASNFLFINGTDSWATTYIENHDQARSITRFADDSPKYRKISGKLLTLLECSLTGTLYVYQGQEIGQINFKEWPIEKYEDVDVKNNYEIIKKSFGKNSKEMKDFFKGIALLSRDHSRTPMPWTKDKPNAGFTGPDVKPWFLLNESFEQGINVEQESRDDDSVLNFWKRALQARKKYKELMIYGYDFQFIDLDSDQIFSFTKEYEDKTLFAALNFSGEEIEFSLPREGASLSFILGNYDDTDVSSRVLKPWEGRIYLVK
# Method Description: Inhibition kinetics analysis (Lineweaver–Burk plots and secondary plots)
# Type: biochemical
# Condition Set: inhibitor concentration 0.08 mM
// unit must come after the numeric part

What does the record list as Vmax for O=C1N[C@@H](Cc2c[nH]c3ccccc23)C(=O)N2CCC[C@@H]12 ?
0.41 ± 0.03 µM/min

Now the same for CC[C@H](C)[C@@H]1NC(=O)[C@H](CC(C)C)NC1=O
0.86 ± 0.11 µM/min

How about this compound: COC1CCC=C(C)C(=O)Nc2cc(O)cc(c2)CC(C)CC(OC)C(O)C(C)C=C(C)C1OC(N)=O (stereo not shown)
0.46 ± 0.03 µM/min

Also, O=C1N[C@@H](Cc2c[nH]c3ccccc23)C(=O)N[C@H]1CO please.
1.11 ± 0.14 µM/min

These entries and their values trace back to paper PMC10180428.
